The sequences listed here are annotated with their gcPBM binding intensity (ln).
Test system: PfAP2-HC AP2 domain (GST-tagged)
measurement_protocol: gcPBM binding intensity (ln(normalized median fluorescence intensity)); higher = stronger DNA binding
The full ranking holds about 25,000 sequences; the median of “ln(normalized median fluorescence intensity)” is about 9.7, and the highest 2% start at about 11. What follows is part of a selection rich in the highest values, with near analogues and random picks from the rest.
Enter a number only.

query: Reported gcPBM binding intensity (ln), sequence TTTCTTTTTCGATATACACACTGTATGTGTCTAAAA [CACACA_site6054] : ____
result: 9.95

query: Recorded gcPBM binding intensity (ln) for ATATTGTAAGTAAAATGTAATAAATATAATAAAATA [CACACA_negctrl_site697] , please?
result: 9.76

query: What value of gcPBM binding intensity (ln) has been reported for the following sequence? TCTTTTTAAATATATACACACCGTGTCTACAGATAC [CACACA_site5784]
result: 9.88

query: Could you tell me which gcPBM binding intensity (ln) is on file for TACATATTACTATTCAGTACATATTTTTTTTTCATT [XGTACX_site7468] ?
result: 9.81

query: I have this sequence here, AATATTTATAAATTTACACACACACCCGTGAACATA [CACACA_site1910] , and I need its recorded gcPBM binding intensity (ln).
result: 10.2

query: Name the reported gcPBM binding intensity (ln) value associated with the sequence AAAAAACAAAAAAAAAAAAAAATAATACAATATAAT [CACACA_negctrl_site1630]
result: 9.56
